test: Selectivity index, ratio of IC50 for human AB943 cells to IC50 of bloodstream form of Trypanosoma brucei gambiense Feo; format: toxicity; conditions: read-out: Ratio IC50
MEASURED PARAMETER: selectivity ratio
Numbers only.

Some compounds with known selectivity ratio results, for comparison:
COMPOUND	selectivity ratio
CC(=O)OCCC1S/C(=N\N=C\c2c(-c3ccccc3)[nH]c3ccccc23)NC1=O (stereo not given)	95
CCOC(=O)c1sc(N/N=C/c2c(-c3ccc(Cl)cc3)[nH]c3ccccc23)nc1C	39
CC1S/C(=N\N=C\c2c(-c3ccccc3)[nH]c3ccccc23)NC1=O (stereo not given)	130
CCOC(=O)c1s/c(=N\N=C\c2c(-c3ccccc3)nc3sc(CC)nn23)n(-c2ccc(O)cc2)c1C	69
CCC1S/C(=N\N=C\c2c(-c3ccc([N+](=O)[O-])cc3)[nH]c3ccccc23)N(c2ccc(O)cc2)C1=O (stereo not given)	60

Below is a list of compounds. For each, state its recorded selectivity ratio.
1. CCOC(=O)c1s/c(=N\N=C\c2c(-c3ccc([N+](=O)[O-])cc3)[nH]c3ccccc23)n(-c2ccc(O)cc2)c1C
2. O=C1CS/C(=N\N=C\c2c(-c3ccccc3)[nH]c3ccccc23)N1
3. O=C1C(CCO)S/C(=N\N=C\c2c(-c3ccc(Cl)cc3)[nH]c3ccccc23)N1Cc1ccco1 (stereo not given)
4. CC1CS(=O)(=O)CCN1/N=C/c1ccc([N+](=O)[O-])o1 (stereo not given)
5. CCC1S/C(=N\N=C\c2c(-c3ccccc3)[nH]c3ccccc23)NC1=O (stereo not given)

Result:
127
57
4
14
220

Ask: Data request, read-out selectivity ratio, for C=CCSc1nn2c(/C=N/N=C3/NC(=O)C(CCOC(C)=O)S3)c(-c3ccccc3)nc2s1 (stereo not given)
Result: 3

====

assay: Selectivity index, ratio of IC50 for human AB943 cells to IC50 of bloodstream form of Trypanosoma brucei gambiense Feo; assay type: toxicity; conditions: read-out: Ratio IC50
MEASURED PARAMETER: selectivity ratio

COMPOUND	RESULT
CCc1nn2c(/C=N/N=c3\scc(-c4ccc([N+](=O)[O-])cc4)n3-c3ccc(O)cc3)c(-c3ccc(Br)cc3)nc2s1	> 150
CCOC(=O)c1s/c(=N\N=C\c2c(-c3ccc([N+](=O)[O-])cc3)nc3sc(CC)nn23)n(-c2ccc(O)cc2)c1C	> 130
C=CCSc1nn2c(/C=N/N=c3\sc(C(=O)OCC)c(C)n3-c3ccc(O)cc3)c(-c3ccccc3)nc2s1	> 130
C=CCSc1nn2c(/C=N/N=C3\SC(CC)C(=O)N3c3ccc(O)cc3)c(-c3ccccc3)nc2s1 (centres undefined)	> 26
CCc1nn2c(/C=N/N=c3/[nH]c(-c4ccc(Br)cc4)cs3)c(-c3ccc([N+](=O)[O-])cc3)nc2s1	> 70

// each compound listed below needs its selectivity ratio
1. CCc1nn2c(/C=N/N=c3\scc(-c4ccc(Br)cc4)n3-c3ccc(O)cc3)c(-c3ccc(Br)cc3)nc2s1
2. CC(=O)OCCC1S/C(=N\N=C\c2c(-c3ccc(Cl)cc3)[nH]c3ccccc23)N(c2ccc(O)cc2)C1=O (centres undefined)
3. O=C1CS/C(=N\N=C\c2c(-c3ccc(Cl)cc3)[nH]c3ccccc23)N1c1ccc(O)cc1
4. O=[N+]([O-])c1ccc(-c2[nH]c3ccccc3c2/C=N/Nc2nc(-c3ccc(Br)cc3)cs2)cc1

Result:
> 150
> 240
> 130
> 40
